Origin of the recorded values: PubChem BioAssay AID2060908

Entries and their pIC50
Test system: 186277-243-T-J2-PDC complex spheroids, viability
Assay Details: Anticancer human tumor 186277-243-T-J2-PDC patient-derived colon adenocarcinoma cell line growth inhibition [RAS]
Particulars: curve of first compound; second compound 0.00316 µM
# log scale: pIC50 equals minus log10 of the concentration in mol/L

Solved cases (3 shown):
O=C(c1ccc(F)c(F)c1Nc1ccc(I)cc1F)N1CC(O)([C@@H]2CCCCN2)C1 + C=CC(=O)N1CCN(c2nc(OCC3CCCN3C)nc3c(F)c(-c4nc(N)cc(C)c4C(F)(F)F)c(Cl)cc23)C(C)C1 :: 7.28
CCC(CC)c1cc(NC2CCC(N)C2)n2nccc2n1 (stereo not drawn) + C=CC(=O)N1CCN(c2nc(OCC3CCCN3C)nc3c(F)c(-c4nc(N)cc(C)c4C(F)(F)F)c(Cl)cc23)C(C)C1 :: 5.73
Nc1ccn(C2OC(CO)C(O)C2(F)F)c(=O)n1 (stereo not drawn) + C=CC(=O)N1CCN(c2nc(OCC3CCCN3C)nc3c(F)c(-c4nc(N)cc(C)c4C(F)(F)F)c(Cl)cc23)C(C)C1 :: 8.30

Now, please, on to the next compound.
input: Give recorded pIC50. CCc1c2c(nc3ccc(O)cc13)-c1cc3c(c(=O)n1C2)COC(=O)[C@]3(O)CC + C=CC(=O)N1CCN(c2nc(OCC3CCCN3C)nc3c(F)c(-c4nc(N)cc(C)c4C(F)(F)F)c(Cl)cc23)C(C)C1
output: 7.74

====

Test system: 186277-243-T-J2-PDC complex spheroids, viability
Assay Details: Anticancer human tumor 186277-243-T-J2-PDC cell line growth inhibition [RAS];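 also: spheroids exposed to compounds for 7 days before viability read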
Particulars: second compound 0.0949 µM; first compound 0.00316 µM; stronger effect = lower value
Entries and their viability, T/C

Solved cases (3 shown):
C=CC(=O)Nc1cc(Nc2nccc(-c3cn(C)c4ccccc34)n2)c(OC)cc1N(C)CCN(C)C + CCn1c(-c2cccnc2C(C)OC)c2c3cc(ccc31)N1CCOC(CC(NC(=O)C(C(C)C)N(C)C(=O)C3(F)CCN(C(=O)C#CC(C)(C)N(C)C)CC3)C(=O)N3CCCC(N3)C(=O)OCC(C)(C)C2)C1 :: 109%
Nc1ccn(C2OC(CO)C(O)C2(F)F)c(=O)n1 (centres undefined) + CCn1c(-c2cc(N3CCN(C)CC3)cnc2C(C)OC)c2c3cc(ccc31)-c1csc(n1)CC(NC(=O)C1CC1C)C(=O)N1CCCC(N1)C(=O)OCC(C)(C)C2 :: 5.28%
CC(C)n1nc(-c2ccc3oc(N)nc3c2)c2c(N)ncnc21 + CCn1c(-c2cc(N3CCN(C)CC3)cnc2C(C)OC)c2c3cc(ccc31)-c1csc(n1)CC(NC(=O)C1CC1C)C(=O)N1CCCC(N1)C(=O)OCC(C)(C)C2 :: 5.35%

Now, please, on to the next molecule.
input: Give recorded viability, T/C. CC(C)n1nc(-c2ccc3oc(N)nc3c2)c2c(N)ncnc21 + CCn1c(-c2cccnc2C(C)OC)c2c3cc(ccc31)N1CCOC(CC(NC(=O)C(C(C)C)N(C)C(=O)C3(F)CCN(C(=O)C#CC(C)(C)N(C)C)CC3)C(=O)N3CCCC(N3)C(=O)OCC(C)(C)C2)C1
output: 105%

====

Entries and their viability, T/C
System: 186277-243-T-J2-PDC complex spheroids, viability
Assay Details: Anticancer human tumor 186277-243-T-J2-PDC cell line growth inhibition [RAS];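 also: spheroids exposed to compounds for 7 days before viability read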
Particulars: second compound 0.00949 µM; first compound 3.16 µM; stronger effect = lower value
Lab book: enter the figure in %, no units written.

input: Give recorded viability, T/C. C[C@@H](NC(=O)c1ncnc(N)c1Cl)c1ncc(C(=O)Nc2cc(C(F)(F)F)c(Cl)cn2)s1 + CCn1c(-c2cc(N3CCN(C)CC3)cnc2C(C)OC)c2c3cc(ccc31)-c1csc(n1)CC(NC(=O)C1CC1C)C(=O)N1CCCC(N1)C(=O)OCC(C)(C)C2
output: 54.2

input: Give recorded viability, T/C. CC(Nc1ccc2c(c1)OCCn1cc(N3C(=O)OCC3C(F)F)nc1-2)C(N)=O (centres undefined) + CCn1c(-c2cccnc2C(C)OC)c2c3cc(ccc31)N1CCOC(CC(NC(=O)C(C(C)C)N(C)C(=O)C3(F)CCN(C(=O)C#CC(C)(C)N(C)C)CC3)C(=O)N3CCCC(N3)C(=O)OCC(C)(C)C2)C1
output: 102

input: Give recorded viability, T/C. CC(C)NCC(C(=O)N1CCN(c2ncnc3c2C(C)CC3O)CC1)c1ccc(Cl)cc1 (centres undefined) + CCn1c(-c2cccnc2C(C)OC)c2c3cc(ccc31)N1CCOC(CC(NC(=O)C(C(C)C)N(C)C(=O)C3(F)CCN(C(=O)C#CC(C)(C)N(C)C)CC3)C(=O)N3CCCC(N3)C(=O)OCC(C)(C)C2)C1
output: 43.9

input: Give recorded viability, T/C. Cc1nc(N2CCC3(CC2)COC(C)C3N)c(CO)nc1Sc1ccnc(N)c1Cl (centres undefined) + CCn1c(-c2cccnc2C(C)OC)c2c3cc(ccc31)N1CCOC(CC(NC(=O)C(C(C)C)N(C)C(=O)C3(F)CCN(C(=O)C#CC(C)(C)N(C)C)CC3)C(=O)N3CCCC(N3)C(=O)OCC(C)(C)C2)C1
output: 132
